# Test system: Enterococcus faecium X66
# PROTOCOL_DETAILS: MIC, standard agar-dilution assay
# Format: cell-based
MEASURED_METRIC: MIC

[
  {
    "MOLECULE": "CCCCCCCCN[C@@]1(C)C[C@H](O[C@H]2[C@H](Oc3c4cc5cc3Oc3ccc(cc3Cl)[C@@H](O[C@H]3C[C@](C)(N)[C@@H](O)[C@H](C)O3)[C@@H]3NC(=O)[C@H](NC(=O)[C@@H]5NC(=O)[C@H](CC(N)=O)NC(=O)[C@H](NC(=O)[C@@H](CC(C)C)NC)[C@H](O)c5ccc(c(Cl)c5)O4)c4ccc(O)c(c4)-c4c(O)cc(O)cc4[C@@H](C(=O)O)NC3=O)O[C@H](CO)[C@@H](O)[C@@H]2O)O[C@@H](C)[C@@H]1O",
    "RECORDED_VALUE": ".25 µg/mL"
  },
  {
    "MOLECULE": "CNC(CC(C)C)C(=O)NC1C(=O)NC(CC(N)=O)C(=O)NC2C(=O)NC3C(=O)NC(C(=O)NC(C(=O)O)c4cc(O)cc(O)c4-c4cc3ccc4O)C(OC3CC(C)(N)C(O)C(C)O3)c3ccc(c(Cl)c3)Oc3cc2cc(c3OC2OC(CO)C(O)C(O)C2OC2CC(C)(NCc3cccc(Cl)c3)C(O)C(C)O2)Oc2ccc(cc2Cl)C1O (centres unmarked)",
    "RECORDED_VALUE": ".25 µg/mL"
  },
  {
    "MOLECULE": "CN[C@H](CC(C)C)C(=O)N[C@H]1C(=O)N[C@@H](CC(N)=O)C(=O)N[C@H]2C(=O)N[C@H]3C(=O)N[C@H](C(=O)N[C@H](C(=O)O)c4cc(O)cc(O)c4-c4cc3ccc4O)[C@H](O[C@H]3C[C@](C)(N)[C@@H](O)[C@H](C)O3)c3ccc(cc3)Oc3cc2cc(c3O[C@@H]2O[C@H](CO)[C@@H](O)[C@H](O)[C@H]2O[C@H]2C[C@](C)(NCCc3ccccc3)[C@@H](O)[C@H](C)O2)Oc2ccc(cc2Cl)[C@H]1O",
    "RECORDED_VALUE": ".5 µg/mL"
  },
  {
    "MOLECULE": "CCCCCNC1(C)CC(OC2c3ccc(cc3)Oc3cc4cc(c3OC3OC(CO)C(O)C(O)C3O)Oc3ccc(cc3Cl)C(O)C(NC(=O)C(CC(C)C)NC)C(=O)NC(CC(N)=O)C(=O)NC4C(=O)NC3C(=O)NC2C(=O)NC(C(=O)O)c2cc(O)cc(O)c2-c2cc3ccc2O)OC(C)C1O (centres unmarked)",
    "RECORDED_VALUE": "8 µg/mL"
  },
  {
    "MOLECULE": "CN[C@H](CC(C)C)C(=O)N[C@H]1C(=O)N[C@@H](CC(N)=O)C(=O)N[C@H]2C(=O)N[C@H]3C(=O)N[C@H](C(=O)N[C@H](C(=O)O)c4cc(O)cc(O)c4-c4cc3ccc4O)[C@H](O[C@H]3C[C@](C)(NCc4ccc(Cl)cc4)[C@@H](O)[C@H](C)O3)c3ccc(cc3)Oc3cc2cc(c3O[C@@H]2O[C@H](CO)[C@@H](O)[C@H](O)[C@H]2O[C@H]2C[C@](C)(N)[C@@H](O)[C@H](C)O2)Oc2ccc(cc2Cl)[C@H]1O",
    "RECORDED_VALUE": ".5 µg/mL"
  }
]
